Parameter: abundance fitness. Scope: all listed entries.
B1: GA-binding protein alpha chain, residues 172 to 250; numbered along this chain, Q06546 (parent)
chain: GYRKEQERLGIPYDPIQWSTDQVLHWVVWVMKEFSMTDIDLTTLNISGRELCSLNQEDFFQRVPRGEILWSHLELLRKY

variants of: B1; test: abundance fitness (aPCA) (normalised: wild type 0, dead -1); higher = more abundant; growth selection in yeast, the domain comes from the species named; conditions: Homo sapiens
READOUT_TYPE: abundance fitness

{"CHANGE": "E5V", "READOUT_TYPE": "abundance fitness", "MEASURED": -0.093}
{"CHANGE": "M36L", "READOUT_TYPE": "abundance fitness", "MEASURED": 0.043}
{"CHANGE": "V63Y", "READOUT_TYPE": "abundance fitness", "MEASURED": -0.221}
{"CHANGE": "D21N", "READOUT_TYPE": "abundance fitness", "MEASURED": -0.044}
{"CHANGE": "N45H", "READOUT_TYPE": "abundance fitness", "MEASURED": 0.015}
{"CHANGE": "Y13T", "READOUT_TYPE": "abundance fitness", "MEASURED": -0.152}
{"CHANGE": "D14R", "READOUT_TYPE": "abundance fitness", "MEASURED": -0.954}
{"CHANGE": "L51R", "READOUT_TYPE": "abundance fitness", "MEASURED": -0.813}
{"CHANGE": "P15C", "READOUT_TYPE": "abundance fitness", "MEASURED": -0.742}
{"CHANGE": "K32E", "READOUT_TYPE": "abundance fitness", "MEASURED": -0.024}
{"CHANGE": "V27P", "READOUT_TYPE": "abundance fitness", "MEASURED": -0.668}
{"CHANGE": "R77H", "READOUT_TYPE": "abundance fitness", "MEASURED": -0.07}
{"CHANGE": "S19G", "READOUT_TYPE": "abundance fitness", "MEASURED": -0.34}
{"CHANGE": "V27S", "READOUT_TYPE": "abundance fitness", "MEASURED": -0.171}
{"CHANGE": "I16N", "READOUT_TYPE": "abundance fitness", "MEASURED": -0.082}
{"CHANGE": "P15S", "READOUT_TYPE": "abundance fitness", "MEASURED": -0.765}
{"CHANGE": "E74V", "READOUT_TYPE": "abundance fitness", "MEASURED": -0.213}
{"CHANGE": "Q17C", "READOUT_TYPE": "abundance fitness", "MEASURED": -0.127}
{"CHANGE": "R65E", "READOUT_TYPE": "abundance fitness", "MEASURED": 0.033}
{"CHANGE": "H72P", "READOUT_TYPE": "abundance fitness", "MEASURED": -1}
{"CHANGE": "E57G", "READOUT_TYPE": "abundance fitness", "MEASURED": -0.045}
{"CHANGE": "L41Q", "READOUT_TYPE": "abundance fitness", "MEASURED": -0.117}
{"CHANGE": "R62V", "READOUT_TYPE": "abundance fitness", "MEASURED": -0.039}
{"CHANGE": "H25L", "READOUT_TYPE": "abundance fitness", "MEASURED": -0.167}
{"CHANGE": "R77M", "READOUT_TYPE": "abundance fitness", "MEASURED": -0.348}
{"CHANGE": "Q22I", "READOUT_TYPE": "abundance fitness", "MEASURED": -0.899}
{"CHANGE": "L69R", "READOUT_TYPE": "abundance fitness", "MEASURED": -0.977}
{"CHANGE": "Q6F", "READOUT_TYPE": "abundance fitness", "MEASURED": -0.184}
{"CHANGE": "V27R", "READOUT_TYPE": "abundance fitness", "MEASURED": -0.436}
{"CHANGE": "S53Q", "READOUT_TYPE": "abundance fitness", "MEASURED": -0.085}
{"CHANGE": "D40K", "READOUT_TYPE": "abundance fitness", "MEASURED": -0.23}
{"CHANGE": "V23P", "READOUT_TYPE": "abundance fitness", "MEASURED": -0.909}
{"CHANGE": "V28K", "READOUT_TYPE": "abundance fitness", "MEASURED": 0.085}
{"CHANGE": "D40P", "READOUT_TYPE": "abundance fitness", "MEASURED": -0.111}
{"CHANGE": "W18M", "READOUT_TYPE": "abundance fitness", "MEASURED": -0.957}
{"CHANGE": "L44V", "READOUT_TYPE": "abundance fitness", "MEASURED": -0.193}
{"CHANGE": "T43S", "READOUT_TYPE": "abundance fitness", "MEASURED": 0.014}
{"CHANGE": "S53N", "READOUT_TYPE": "abundance fitness", "MEASURED": -0.033}
{"CHANGE": "D58V", "READOUT_TYPE": "abundance fitness", "MEASURED": -0.091}
{"CHANGE": "W18G", "READOUT_TYPE": "abundance fitness", "MEASURED": -0.779}
{"CHANGE": "L41A", "READOUT_TYPE": "abundance fitness", "MEASURED": -0.049}
{"CHANGE": "L44D", "READOUT_TYPE": "abundance fitness", "MEASURED": -0.945}
{"CHANGE": "S71V", "READOUT_TYPE": "abundance fitness", "MEASURED": -0.131}
{"CHANGE": "D14Y", "READOUT_TYPE": "abundance fitness", "MEASURED": -0.57}
{"CHANGE": "I11L", "READOUT_TYPE": "abundance fitness", "MEASURED": -0.191}
{"CHANGE": "N55I", "READOUT_TYPE": "abundance fitness", "MEASURED": -0.244}
{"CHANGE": "Q22K", "READOUT_TYPE": "abundance fitness", "MEASURED": -0.787}
{"CHANGE": "L24H", "READOUT_TYPE": "abundance fitness", "MEASURED": 0.029}
{"CHANGE": "L24I", "READOUT_TYPE": "abundance fitness", "MEASURED": -0.091}
{"CHANGE": "V63A", "READOUT_TYPE": "abundance fitness", "MEASURED": -0.075}
{"CHANGE": "R8Q", "READOUT_TYPE": "abundance fitness", "MEASURED": -0.158}
{"CHANGE": "G66L", "READOUT_TYPE": "abundance fitness", "MEASURED": -0.795}
{"CHANGE": "C52P", "READOUT_TYPE": "abundance fitness", "MEASURED": -1.03}
{"CHANGE": "T37G", "READOUT_TYPE": "abundance fitness", "MEASURED": -0.004}
{"CHANGE": "R77F", "READOUT_TYPE": "abundance fitness", "MEASURED": -0.859}
{"CHANGE": "V28M", "READOUT_TYPE": "abundance fitness", "MEASURED": 0.016}
{"CHANGE": "K32W", "READOUT_TYPE": "abundance fitness", "MEASURED": -0.419}
{"CHANGE": "L54W", "READOUT_TYPE": "abundance fitness", "MEASURED": -0.021}
{"CHANGE": "Q17I", "READOUT_TYPE": "abundance fitness", "MEASURED": -0.269}
{"CHANGE": "S53R", "READOUT_TYPE": "abundance fitness", "MEASURED": -0.057}
{"CHANGE": "R62L", "READOUT_TYPE": "abundance fitness", "MEASURED": 0.008}
{"CHANGE": "E74W", "READOUT_TYPE": "abundance fitness", "MEASURED": -0.336}
{"CHANGE": "Q61W", "READOUT_TYPE": "abundance fitness", "MEASURED": -0.298}
{"CHANGE": "C52I", "READOUT_TYPE": "abundance fitness", "MEASURED": 0.076}
{"CHANGE": "T37H", "READOUT_TYPE": "abundance fitness", "MEASURED": -0.037}
{"CHANGE": "W70R", "READOUT_TYPE": "abundance fitness", "MEASURED": -0.526}
{"CHANGE": "I16W", "READOUT_TYPE": "abundance fitness", "MEASURED": -0.016}
{"CHANGE": "V28G", "READOUT_TYPE": "abundance fitness", "MEASURED": -0.023}
{"CHANGE": "E57R", "READOUT_TYPE": "abundance fitness", "MEASURED": -0.082}
{"CHANGE": "H72I", "READOUT_TYPE": "abundance fitness", "MEASURED": -0.338}
{"CHANGE": "L73P", "READOUT_TYPE": "abundance fitness", "MEASURED": -0.658}
{"CHANGE": "E7N", "READOUT_TYPE": "abundance fitness", "MEASURED": -0.177}
{"CHANGE": "D40A", "READOUT_TYPE": "abundance fitness", "MEASURED": -0.226}
{"CHANGE": "Q22D", "READOUT_TYPE": "abundance fitness", "MEASURED": -0.072}
{"CHANGE": "G66H", "READOUT_TYPE": "abundance fitness", "MEASURED": -0.608}
{"CHANGE": "E74L", "READOUT_TYPE": "abundance fitness", "MEASURED": -0.109}
{"CHANGE": "K32Q", "READOUT_TYPE": "abundance fitness", "MEASURED": -0.061}
{"CHANGE": "E33V", "READOUT_TYPE": "abundance fitness", "MEASURED": -0.277}
{"CHANGE": "L41E", "READOUT_TYPE": "abundance fitness", "MEASURED": -0.153}
{"CHANGE": "V28Q", "READOUT_TYPE": "abundance fitness", "MEASURED": 0.027}
{"CHANGE": "E67T", "READOUT_TYPE": "abundance fitness", "MEASURED": -0.038}
{"CHANGE": "D58T", "READOUT_TYPE": "abundance fitness", "MEASURED": -0.053}
{"CHANGE": "S19T", "READOUT_TYPE": "abundance fitness", "MEASURED": 0.05}
{"CHANGE": "L54C", "READOUT_TYPE": "abundance fitness", "MEASURED": -0.374}
{"CHANGE": "L54E", "READOUT_TYPE": "abundance fitness", "MEASURED": -0.484}
{"CHANGE": "D58Q", "READOUT_TYPE": "abundance fitness", "MEASURED": -0.03}
{"CHANGE": "K78V", "READOUT_TYPE": "abundance fitness", "MEASURED": -0.078}
{"CHANGE": "R77K", "READOUT_TYPE": "abundance fitness", "MEASURED": 0.016}
{"CHANGE": "G48F", "READOUT_TYPE": "abundance fitness", "MEASURED": -0.796}
{"CHANGE": "T20I", "READOUT_TYPE": "abundance fitness", "MEASURED": -0.101}
{"CHANGE": "P64F", "READOUT_TYPE": "abundance fitness", "MEASURED": -0.611}
